Origin of values: ChEMBL document CHEMBL1201862

Tested on: HOP-92
ASSAY_PROCEDURE: NCI tumour cell line growth inhibition, 48 h
Activity calls are given as the source filed them. Cut-off read from the data, not from the text of the source: active = GI50 up to about 1.1 µM and inactive = higher.
Use one of these outcomes when replying: y for active, n for inactive

[
  {
    "MOLECULE": "CO/C(C)=N/CCC1=CCCCC1",
    "CATEGORY_LABEL": "n"
  },
  {
    "MOLECULE": "O=C(c1ccccc1)c1c(CC(O)c2ccccn2)n(C(=O)c2ccccc2)c2ccccc12 (stereo not drawn)",
    "CATEGORY_LABEL": "n"
  },
  {
    "MOLECULE": "O=C1c2ccccc2C(=O)N1CCn1nc(-c2ccccc2)cc(-c2ccccc2)c1=O",
    "CATEGORY_LABEL": "n"
  }
]

[ask] // outcome(item) with item = Clc1ccc(C2ON=C(c3ccccc3)N2C23CC4CC(CC(C4)C2)C3)cc1 (stereo not drawn)
[reply] n

[ask] // outcome(item) with item = O=C1Nc2ccccc2/C1=N/NC(=S)N1CCCC1
[reply] n

[ask] // outcome(item) with item = Cc1noc2nnn(-c3ccc(Cl)cc3)c(=O)c12
[reply] n

* * *

Catalogue of GI50 readings, one per entry.
System: NCI-H23
ASSAY_PROCEDURE: NCI tumour cell line growth inhibition, 48 h
Calls of active or inactive are those of the source. Cut-off read from the data, not from the text of the source: active = GI50 up to about 1.1 µM and inactive = higher.

For orientation, consider the following solved cases.
[
  {
    "CPD_SMILES": "O=c1c2cc(Br)ccc2nc(CNc2ccccc2)n1-c1ccccc1",
    "GI50": "13.6 µM (inactive)"
  },
  {
    "CPD_SMILES": "CC(=O)O[C@H]1[C@@H](N2CCOCC2)C[C@H]2[C@@H]3CC=C4C[C@@H](N5CCCC5)CC[C@]4(C)[C@H]3CC[C@@]21C",
    "GI50": "> 100 µM (inactive)"
  }
]

Please look at the following molecule next.
[ask] Would you mind telling me what GI50 value was observed for Nc1ccc(/N=N/c2ccc(/C=C/c3ccc(/N=N/c4ccc(N)c5ccc(S(=O)(=O)O)cc45)cc3S(=O)(=O)O)c(S(=O)(=O)O)c2)c2cc(S(=O)(=O)O)ccc12 ?
[reply] > 100 µM (inactive)

* * *

Test system: KM-20L2
ASSAY_PROCEDURE: NCI tumour cell line growth inhibition, 48 h
Active and inactive are the calls of the source. Cut-off read from the data, not from the text of the source: active = GI50 up to about 1.1 µM and inactive = higher.
Catalogue of GI50 readings, one per entry.

For orientation, consider the following solved cases.
[
  {
    "COMPOUND": "Oc1cccc2nc3cc(CN4CCOCC4)c(CN4CCOCC4)cc3nc12",
    "GI50": "48.9 µM (inactive)"
  },
  {
    "COMPOUND": "BrC1=CCC23CC=C(Br)[C@H]4CC2(COC3)C[C@@H]1O4 (stereo not given in full)",
    "GI50": "59.3 µM (inactive)"
  },
  {
    "COMPOUND": "CCC1=NC(CO)[C@H](c2ccccc2)O1 (stereo not given in full)",
    "GI50": "> 100 µM (inactive)"
  },
  {
    "COMPOUND": "NC(=O)N/N=C(\\C(=O)C(=O)Nc1ccc(Cl)c(C(F)(F)F)c1)c1nc2ccc(C(=O)c3ccccc3)cc2nc1O",
    "GI50": "> 100 µM (inactive)"
  },
  {
    "COMPOUND": "C#C[C@H]1CCCCCC1O (stereo not given in full)",
    "GI50": "> 100 µM (inactive)"
  },
  {
    "COMPOUND": "O=C(/C(=N/Nc1ccccc1)c1ccc([N+](=O)[O-])cc1)c1ccc([N+](=O)[O-])cc1",
    "GI50": "> 100 µM (inactive)"
  }
]

[ask] Would you mind telling me what GI50 value was observed for O=C(O)CP(=S)(S)c1ccccc1 (stereo not given) ?
[reply] > 10 µM (inactive)

[ask] Would you mind telling me what GI50 value was observed for CCCCCCCC/C=C\CCCCCCCC(=O)O [OLEIC ACID] ?
[reply] > 500 µM (inactive)

[ask] Would you mind telling me what GI50 value was observed for COc1cccc2c1C(=O)c1c(O)c3c(c(O)c1C2=O)CC(O)(C(C)=O)CC3O (stereo not given) ?
[reply] 6.85 µM (inactive)

[ask] Would you mind telling me what GI50 value was observed for CC(C)C.C[N+](C)(C)C.OC(c1ccccc1)(C(F)(F)F)C(F)(F)F.OC(c1ccccc1)(C(F)(F)F)C(F)(F)F.[SiH3-] ?
[reply] 2.29 µM (inactive)

* * *

Tested on: HCT-116
ASSAY_PROCEDURE: NCI tumour cell line growth inhibition, 48 h
Calls of active or inactive are those of the source. No stated cut-off is given here; in the data, active = GI50 up to about 1.1 µM and inactive = higher.
METRIC: GI50

For orientation, consider the following solved cases.
[
  {
    "MOLECULE": "c1ccc(N2N=C(c3ccco3)CC2c2ccco2)cc1 (stereo not drawn)",
    "GI50": "32.5 µM (inactive)"
  },
  {
    "MOLECULE": "C=C(CCCCCCCCC)CC(=O)SCCNC(=O)CCNC(=O)C(O)C(C)(C)COP(=O)(O)OP(=O)(O)OCC1OC(n2cnc3c(N)ncnc32)C(O)C1OP(=O)(O)O (stereo not drawn)",
    "GI50": "45.5 µM (inactive)"
  },
  {
    "MOLECULE": "NC(=O)N/N=C(\\C(=O)C(=O)Nc1ccc(Cl)c(C(F)(F)F)c1)c1nc2ccc(C(=O)c3ccccc3)cc2nc1O",
    "GI50": "> 100 µM (inactive)"
  },
  {
    "MOLECULE": "CC(C)=C1C(=O)C[C@]2(C)C[C@H]3/C(=C(/C)CCC12)CC[C@@]3(C)O (stereo partly drawn)",
    "GI50": "46.2 µM (inactive)"
  },
  {
    "MOLECULE": "CC(C)(C)C1CCC2c3c([nH]c4ccccc34)C3C(=O)N(c4ccc(C#N)cc4)C(=O)C3C2C1 (stereo not drawn)",
    "GI50": "5.43 µM (inactive)"
  },
  {
    "MOLECULE": "O=C1c2cc3c(cc2[C@@H]2C(O)[C@H]4O[C@H]4C4CCN1C42)OCO3 (stereo partly drawn)",
    "GI50": "> 37.5 µM (inactive)"
  },
  {
    "MOLECULE": "CC1(COS(=O)(=O)OCC2(C)COS(=O)(=O)OC2)COS(=O)(=O)OC1",
    "GI50": "> 52.6 µM (inactive)"
  }
]

Please look at the following molecule next.
[ask] Would you mind telling me what GI50 value was observed for Nc1ccc(/N=N/c2ccc(/C=C/c3ccc(/N=N/c4ccc(N)c5ccc(S(=O)(=O)O)cc45)cc3S(=O)(=O)O)c(S(=O)(=O)O)c2)c2cc(S(=O)(=O)O)ccc12 ?
[reply] > 100 µM (inactive)

* * *

Test system: HT-29
ASSAY_PROCEDURE: NCI tumour cell line growth inhibition, 48 h
The source made the active and inactive calls. Cut-off read from the data, not from the text of the source: active = GI50 up to about 1.1 µM and inactive = higher.
METRIC: GI50

For orientation, consider the following solved cases.
[
  {
    "MOLECULE": "O=C(OCCN=c1c2ccccc2ccc2ccccc12)c1cc([N+](=O)[O-])cc([N+](=O)[O-])c1",
    "GI50": "> 100 µM (inactive)"
  },
  {
    "MOLECULE": "OC1CN2CCS[C@H]2C(O)C1O (stereo not given in full)",
    "GI50": "> 100 µM (inactive)"
  },
  {
    "MOLECULE": "COc1cccc(-c2nccc3c(OCc4ccccc4)c(OC)c(OC)cc23)c1",
    "GI50": "12 µM (inactive)"
  },
  {
    "MOLECULE": "NC1CNC(=O)c2c(Cl)sc(Cl)c21 (stereo not given)",
    "GI50": "> 100 µM (inactive)"
  },
  {
    "MOLECULE": "C=C1C(=O)OCC2C(C(=O)O)=CC3C(C)C(C)=CC123 (stereo not given)",
    "GI50": "11.1 µM (inactive)"
  }
]

Please look at the following molecule next.
[ask] Would you mind telling me what GI50 value was observed for C=CCNC(=O)NNC(O)(C(=O)OCC)C(F)(F)F (stereo not given) ?
[reply] > 100 µM (inactive)

* * *

System: SR
ASSAY_PROCEDURE: NCI tumour cell line growth inhibition, 48 h
Activity calls are given as the source filed them. Cut-off read from the data, not from the text of the source: active = GI50 up to about 1.1 µM and inactive = higher. Where a SMILES comes first, the peptide text is derived from it. The star is where a group is joined. Cbz = O=C(OCc1ccccc1)*; NHNH2 = NN*
Catalogue of GI50 readings, one per entry.

For orientation, consider the following solved cases.
[
  {
    "COMPOUND": "CCOC(=O)C(C)(C)C(O)C(C)C (stereo not given)",
    "GI50": "> 100 µM (inactive)"
  },
  {
    "COMPOUND": "CN(C)C(=O)OC1=CC2CCC(C1)N2C (stereo not given)",
    "GI50": "47 µM (inactive)"
  },
  {
    "COMPOUND": "O=C1NN=C(c2ccc([N+](=O)[O-])cc2)C1n1nc(-c2ccccc2)c2ccccc2c1=O (stereo not given)",
    "GI50": "> 68.2 µM (inactive)"
  },
  {
    "COMPOUND": "CCOC(=O)CCC(NC(=O)OCc1ccccc1)C(=O)NC(CCC(=O)OCC)C(=O)NN (stereo not given) (Cbz-Glu(OEt)-Glu(OEt)-NHNH2; configuration not given here)",
    "GI50": "> 100 µM (inactive)"
  }
]

Please look at the following compound next.
[ask] Would you mind telling me what GI50 value was observed for O=C1C=CC(O)(C#CCO)C=C1 ?
[reply] 2.98 µM (inactive)
